tested on: BDF1 mice, P388 leukemia ip, median survival T/C; assay: NCI In Vivo Anticancer Drug Screen. Data for tumor model P388 Leukemia (intraperitoneal) in B6D2F1 (BDF1) mice; details: endpoint: median survival time; dose: 200.0 mg/kg/injection; schedule: Q01DX009 (ip); vehicle: water; higher = longer survival
Inconclusive results and toxic doses are left out.
readout kind: T/C

Output measured T/C for this item: OC1OC(COC(c2ccccc2)(c2ccccc2)c2ccccc2)C(O)C(O)C1O (centres undefined)
105 % of control

Output measured T/C for this item: O=[N+]([O-])c1ccc(Oc2ccc(C3N(c4ccccc4)CCN3c3ccccc3)cc2)c([N+](=O)[O-])c1
91 % of control

Output measured T/C for this item: COc1ccc(CN2CC(C)NC(C)C2)cc1 (centres undefined)
98 % of control

Output measured T/C for this item: O=C(Cc1ccccc1)Cc1ccccc1
97 % of control
